Please find below IC50 measurements for Cytochrome P450 2C19 (Homo sapiens, UniProt P33261), combined from several publications.

# substance.smiles, IC50
records = [
    ("CS(=O)(=O)CC(=O)Nc1c(-c2ccc(Cl)cn2)nn2c1C(=O)N[C@]1(CCc3cc(F)cc(F)c31)C2", "> 20 µM"),
    ("CO[C@H]1[C@@H](C(F)(F)F)OC(N)=N[C@]1(C)c1cc(NC(=O)c2ccc(C#N)cn2)ccc1F", "≥ 20 µM"),
    ("CC(=O)N1CCC(n2cc(Nc3ncc(C)c(-c4ccc(C(=O)NCC#N)cc4)n3)cn2)CC1", "> 50 µM"),
]

# get_value(readout='IC50', item= `CO[C@H]1[C@@H](CF)OC(N)=N[C@]1(C)c1cc(NC(=O)c2ccc(Cl)cn2)ccc1Cl` )
≥ 20 µM

Entry under review: `C[C@@H]1CN(C2CCN(C(=O)c3cncn3[C@@H](C)c3ccccc3-c3ccc(F)cc3)CC2)CC[C@@H]1O` . Reported IC50?
> 10 µM

Look up IC50 for this compound: `C[C@H]1[C@@H](C(F)(F)F)OC(N)=N[C@]1(C)c1cc(NC(=O)c2cnc(OCF)cn2)ccc1F`
≥ 20 µM

Name the recorded IC50 for `CCOc1cnc(C(=O)Nc2ccc(F)c([C@@]3(C)N=C(N)S[C@H](C)[C@@H]3F)c2)cn1` .
≥ 20 µM
